# TGT: human glucagon receptor (human, UniProt P47871 26-477)
# Sequence (P47871 26-477): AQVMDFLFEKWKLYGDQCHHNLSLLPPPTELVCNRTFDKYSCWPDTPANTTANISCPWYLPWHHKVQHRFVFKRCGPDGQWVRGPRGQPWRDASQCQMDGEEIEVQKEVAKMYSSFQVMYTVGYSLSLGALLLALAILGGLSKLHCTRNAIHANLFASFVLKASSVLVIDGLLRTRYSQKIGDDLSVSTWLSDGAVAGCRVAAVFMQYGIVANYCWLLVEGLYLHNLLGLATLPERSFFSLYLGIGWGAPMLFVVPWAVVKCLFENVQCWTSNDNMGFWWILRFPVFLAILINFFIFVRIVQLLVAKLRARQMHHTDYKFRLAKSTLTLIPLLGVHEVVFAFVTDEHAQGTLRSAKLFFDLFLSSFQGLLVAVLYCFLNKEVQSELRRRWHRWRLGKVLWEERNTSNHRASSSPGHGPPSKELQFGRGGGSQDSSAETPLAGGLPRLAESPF
# TEST METHOD NOTES: cell-based or functional assay
Numbered stars: 1 amine (or outer) side, 2 acyl side, 3 side chain; on linkers, the order of the positions; unused ones are H or OH. Side chains are listed from the residue outwards. Ends that are not written are not given here. * marks the point of attachment. γGlu = O=C(O)[C@H](CCC(=O)[*:2])N[*:1]; Palmitoyl = CCCCCCCCCCCCCCCC(=O)*; Ahx = NCCCCCC(=O)O; βAla = NCCC(=O)O
Threshold 0.01 nM. cAMP EC50 (assay 1) below it: condition met. cAMP EC50 (assay 1) at it or above: condition not met.

BINDER: HSQGTFTSDYSEYLDSK([Ahx-Palmitoyl])RARDFVAWLERGG-OH (not fully specified) [g826]
LABEL VALUE: condition met
--
BINDER: HSQGTFTSDYSKYLDSRRAQDFVQWLVAGGSSGGSS-NH2 [g316]
LABEL VALUE: condition not met
--
BINDER: HSQGTFTSDYSEYLDSK([Ahx-Palmitoyl])RARDFVAWLERGG-NH2 (not fully specified) [g794]
LABEL VALUE: condition met
--
BINDER: HSQGTFTSDYSKYLDSRRAQDFVQWLVAGGKNNRNNIAK-NH2 [g321]
LABEL VALUE: condition not met
--
BINDER: HSQGTFTSDYSEYLDSK([βAla-Palmitoyl])RARDFVAWLERGG-NH2 (not fully specified) [g795]
LABEL VALUE: condition not met
--
BINDER: HSQGTFTSDYSEYLDSK([γGlu-Palmitoyl])RARDFVAWLERGG-NH2 (not fully specified) [g772]
LABEL VALUE: condition not met

These measurements were taken from patent US20190185537A1.
